# Test system: SK-MEL-28 melanoma
# Method Summary: NCI-60 one-dose screen, 48 h (100 = growth as untreated, 0 = no growth, -100 = all killed)
# Assay Setup: 10 µM unless noted
# Protocol: Growth inhibition of the SK-MEL-28 human tumor cell line is measured as a screen for anti-cancer activity. Cells are grown in 96 well plates and exposed to the test compound for 48 hours. Compounds are tested at a single concentration, which is 10^-5 M for most compounds. The reported endpoint is percent growth (GI% or GIPRCNT), where numbers from 0 - 100% represent growth inhibition, and numbers from -100% - 0 represent cell death. For example, a value of 40 represents 60% growth inhibition. […]
Compounds without any hit were thinned out: in the full panel of roughly 83,000, 20% have a hit.
Give measured growth for each item. Keep answers brief.
The response must be a number in % with no trailing unit.

Would you kindly share the measured growth for "CCN(CC)c1ccc(/C=N\NC(=O)c2cccc(Nc3ccnc(C(F)(F)F)c3)c2)c(O)c1" ?
64.8

Any idea what growth was measured for "CCCCCCCCCCCCCCCCCCOc1ccccc1CC(=O)NCC[N+]1(C)CCOCC1" ?
74.7

Name the recorded growth for "CCOC(=O)NN1CC(O)=C(c2nc(-c3ccc(Br)cc3)cs2)C1=N" .
113

Recorded growth of "COc1ccc(/C=C/C(=O)c2ccc(Nc3nc(Nc4ccc(F)cc4)nc(Nc4ccc(Cl)cc4)n3)cc2)cc1" , please.
110

----------
# Test system: CAKI-1 renal
# Method Summary: NCI-60 one-dose screen, 48 h (100 = growth as untreated, 0 = no growth, -100 = all killed)
# Assay Setup: 10 µM unless noted
About 83,000 compounds went through this panel and 20% of them were active in at least one assay; those are over-represented in the sample as a whole.
Response key: 1 means growth >= 40%; 0 means growth < 40%.

Hello, I need to know if "O=C1N[C@@H]2[C@@H](O)[C@@H](O)[C@H](O)C[C@H]2c2cc3c(c(O)c21)OCCO3" has measured growth not below 40%. Thanks!
0

Quick check: does "O=C(Nc1ccccc1)c1sc(-c2ccccc2)cc1O" have growth greater than or equal to 40%?
1

Given the entry "Cc1cccc(-n2c(C)nc3ccc(N4CCCNC4=O)cc3c2=O)c1" , answer whether its growth meets or surpasses 40%.
1

Has Cc1ccc(C)c2c1C(O)(C#Cc1ccccc1)c1ccccc1C2(O)C#Cc1ccccc1 (centres undefined) a recorded growth greater than or equal to 40%?
1

Tell me whether growth is at least 40% here: "O=C(O)CCCc1cnc2c3sccc3nc(SCc3c(Cl)cccc3Cl)n12"
1

State whether the measured growth reaches 40%, counting equality as reaching it, for "COc1ccc(OC)c(-c2cn3nc(-c4c[nH]c5ccc(Br)cc45)sc3n2)c1"
0

Does growth meet or surpass 40% for COc1ccc(C(c2cc(OC)c(OC)c(OC)c2)N2CCCC2)cc1 (centres undefined) ?
1

// inclusive: growth at least 40%? input: "CC[C@H](Nc1nc(N)nc(C)c1C#N)c1nc2cccc(NCCCCCC(=O)NO)c2c(=O)n1-c1ccccc1"
0

Reported growth at or above 40%? "Cc1[nH]c(C(=O)Nc2cccc(OC3CCNCC3)c2)c(Cl)c1Cl"
1

Check this molecule for growth at or above 40%: "O=C(N=Nc1c(O)[nH]c2ccccc12)Nc1ccc(Cl)cc1"
1

# bool: growth of "CC/C=C1/C(=O)C=C[C@@H]1C/C=C\CCCC(=O)OC" >= 40%
1

I'd appreciate it if you could say whether "COc1cc(C(=O)/C=C/c2ccc(N3CCN(C)CC3)cc2)cc(OC)c1OC" has growth at least equal to 40%.
1

Decide: growth of "COc1ccc(/C=C/C(=O)c2ccc(Nc3nc(Nc4ccc(F)cc4)nc(Nc4ccc(Cl)cc4)n3)cc2)cc1" >= 40%?
1

Confirm if growth reported for the molecule "Cn1c(O)c(C(/C=C/c2ccccc2)=Nc2ccccc2N)c(=O)n(C)c1=O" is 40% or above.
1

Item "CN1CCN(c2ccc3c(c2)nc(NNC(=O)c2cnccn2)c2cccn23)CC1" with growth of 40% or above?
0

Please indicate if the recorded growth for "COc1cc(/C=N/Nc2ccccc2F)cc(OC)c1OC" meets or exceeds 40%.
1

hey, is growth for this one >= 40%? "CCNc1nc(-c2ccc(F)cc2)c(C#N)c(=O)n1C"
1

Item "NNC(=S)N/N=C/c1ccccn1" with growth of 40% or above?
0

Would you say "COc1cc2oc(-c3cccc(NC(=O)c4ccc5c(c4)OCO5)c3)cc(=O)c2c(OC)c1OC" shows growth at minimum 40%?
1

----------
# System: T-47D breast
# Method Summary: NCI-60 one-dose screen, 48 h
# Assay Setup: 10 µM unless noted
# Protocol: Growth inhibition of the T-47D human tumor cell line is measured as a screen for anti-cancer activity. Cells are grown in 96 well plates and exposed to the test compound for 48 hours. Compounds are tested at a single concentration, which is 10^-5 M for most compounds. The reported endpoint is percent growth (GI% or GIPRCNT), where numbers from 0 - 100% represent growth inhibition, and numbers from -100% - 0 represent cell death. For example, a value of 40 represents 60% growth inhibition. […]
Compounds without any hit were thinned out: in the full panel of roughly 83,000, 20% have a hit. The source made the active and inactive calls. Rule for the calls: active = growth percent below 10; inactive = the rest.
Respond with a class label; see Yes (active), No (inactive)

Please indicate how the test categorized "COC(=O)/C=C1/SC(=Nc2cccc(Cl)c2)N(CCc2c[nH]c3ccc(O)cc23)C1=O" .
No

What call does the record list for "CCN(CC)c1ccc(/C=C\c2cc(C)c3cc(C)ccc3n2)cc1" ?
Yes

Answer briefly: the call reported for CCN1C(=O)N(CC)C2C1NN=c1s/c(=C\c3cc4ccccc4[nH]3)c(=O)n12 (stereo not drawn) in this assay.
Yes

----------
# Tested on: MALME-3M melanoma
# Method Summary: NCI-60 one-dose screen, 48 h (100 = growth as untreated, 0 = no growth, -100 = all killed)
# Assay Setup: 10 µM unless noted
This is part of a sample that, as a whole, favours compounds with a hit. Of some 83,000 tested, about 20% had one in any assay.
growth less than 70% is label 1; growth greater than or equal to 70% is label 0.

growth strictly < 70% for this molecule? "COc1ccccc1NC(=O)c1ccc(/C=C/C(=O)c2nccn2C)cc1"
label 1

Please check: growth for "COc1cc2c(c(OC)c1OC)C(=O)N[C@@H]1[C@@H](O)[C@@H](O)[C@H](O)C[C@@H]21" , strictly under 70% or not?
label 0

Does the reported growth of the following molecule sit strictly below 70%? "Cc1ccc(O)c(NC(=O)c2ccc(CNc3ccnc(C(F)(F)F)c3)cc2)c1"
label 1

Problem: For the molecule "COc1cc(/C=C2\CN(S(=O)(=O)c3ccc(C)cc3)C/C(=C\c3cc(CN4CCCCC4)c(O)c(OC)c3)C2=O)cc(CN2CCCCC2)c1O" , is growth under 70%?
label 1

Strictly below 70% in growth? CCC(C)Nc1ccc(NC(C)CC)cc1 (stereo unspecified)
label 0

Please let me know if "COc1cccc(Nc2ccnc3[nH]c4ccc([N+](=O)[O-])cc4c23)c1" shows growth below 70%.
label 1

----------
# System: MCF7 breast
# Method Summary: NCI-60 one-dose screen, 48 h (100 = growth as untreated, 0 = no growth, -100 = all killed)
# Assay Setup: 10 µM unless noted
About 83,000 compounds went through this panel and 20% of them were active in at least one assay; those are over-represented in the sample as a whole.
Recorded Endpoint: growth (%)
Quick note: give the figure in %, leave out the unit.

Provide the documented growth with MCF7 breast as the system for "CCN=C1C=CC(=C(c2ccc(N(C)C)cc2)c2ccc(N(C)C)cc2)c2ccccc21"
-9.8

Tell me reported growth for "O=S(=O)(c1ccccc1)N1CCCN(c2nc(-c3ccccc3)nc3nc(-c4ccccc4)oc23)CC1" , tested with MCF7 breast.
90.8

Missing value: growth, MCF7 breast, entry "O=C1C(Cl)=C(NCCN2CCOCC2)C(=O)c2ncccc21" . Fill in?
-50

Form: Entry = "Cn1cccc1/C=C1\C(=O)Nc2ccccc21" | System = MCF7 breast | growth = ____
12.3

Provide the documented growth with MCF7 breast as the system for "Cc1cccc(NC(=O)CSc2nc3ccc([N+](=O)[O-])cc3[nH]2)c1"
86.5

# get_value(readout= growth, system= MCF7 breast) for "CN(C)c1ccc(/C=C/C(=O)c2ccc(Nc3nc(Nc4ccc(F)cc4)nc(Nc4ccc(Cl)cc4)n3)cc2)cc1"
56.7

Lookup: growth / MCF7 breast / "Cc1ncc(C(=O)Nc2ccc(CN3CCN(C)CC3)c(C(F)(F)F)c2)cc1C#Cc1cnc(N)c2cnccc12"
-73.7

----------
# Tested on: HOP-92 NSCLC
# Method Summary: NCI-60 one-dose screen, 48 h (100 = growth as untreated, 0 = no growth, -100 = all killed)
# Assay Setup: 10 µM unless noted
The panel holds about 83,000 compounds, 20% with a hit somewhere; the sample as a whole holds those more often.
Rule: growth under 70% gives NO, otherwise YES.

Item "COc1cc(/C=N/Nc2ccccc2F)cc(OC)c1OC" with growth of 70% or above?
YES

Does growth meet or surpass 70% for "N#Cc1c(-c2cccc([N+](=O)[O-])c2)cc(-c2ccc(Nc3nc(Nc4ccc(F)cc4)nc(Nc4ccc(F)cc4)n3)cc2)nc1N" ?
NO

Answer whether growth of "Cc1ccc(C)n1/C=C/n1c(C)ccc1C" is greater than or equal to 70%.
YES

Test whether the compound "O=C(Nc1ncc(Cc2ccccc2Cl)s1)c1cccs1" records growth of 70% or higher.
NO

Does the reported growth for "CCCCCCCC/C=C\CCCCCCCCOc1ccccc1CC(=O)NCC[N+]1(C)CCCCC1" fall at or above the 70% mark?
NO

Form field: growth at least 70%? Entry: "COc1cccc(/C=C/C(=O)c2cc3c(N)c(C(=O)Nc4cccc(Cl)c4C)sc3nc2C)c1"
NO

Textbook exercise: given the entry "CCOC(=O)n1cc(-c2nonc2-c2cn(C)c3ccccc23)c2ccccc21" , state whether its growth is greater than or equal to 70%.
NO

Please tell me: is the compound "CCN(CC)c1ccc(/C=N\NC(=O)c2cccc(Nc3ccnc(C(F)(F)F)c3)c2)c(O)c1" at or over 70% in terms of growth?
NO

Entry "COC(=O)c1nc(-c2ccccc2)oc1S(=O)(=O)N1CCC(C(N)=O)CC1" : is its growth no less than 70%?
NO

Can "CN1C(=O)/C(=C/c2ccc(C(=O)Nc3ncc(Cc4ccc(F)cc4)s3)cc2)SC1=S" be said to have growth at or above 70%?
NO

Exam item: decide whether the reported growth for "O=C1CCCc2nc3sc4c(=O)n(-c5ccccc5Cl)nnc4c3cc21" is at least 70%.
YES

Kindly determine if growth recorded for "N#Cc1c(-c2ccccc2)nc2c(c(-c3ccccc3)nn2-c2ccccc2)c1-c1ccc(N2CCOCC2)cc1" is above or exactly 70%.
YES

For this compound, is measured growth 70% or higher? "O=C(CSc1nc2ccc([N+](=O)[O-])cc2[nH]1)Nc1ccc(Br)cc1"
NO

Does "CC(=O)c1cc(-c2ccccc2N)n(-c2ccc3c(c2)OCO3)c1C" have a reported growth of at least 70%?
NO

Dear colleague, could you confirm whether "C/C(=C(\c1ccc(OCCN2CCCCCC2)cc1)c1ccc(OC(=O)Cc2ccccc2)cc1)c1ccc(Cl)cc1" has growth at or above 70%?
NO

Determine whether measured growth meets or exceeds 70% for CCN(CCO)CC(C)Nc1ccc([N+](=O)[O-])c2sc3ccccc3c(=O)c12 (centres undefined)
NO

Could you tell me if the measured growth of "O=C(CSc1nnc2sc(Nc3cccc(Cl)c3)nn12)c1ccc(F)cc1" reaches 70% or more?
YES

Quick check, growth >= 70%? "CCCCn1sc(=O)n(Cc2ccc(CNC(=O)OCc3ccc4c(Cl)cc(Cl)c(O)c4n3)cc2)c1=O"
YES

Given O=C(O)C1CN(c2cccc(Cl)c2)N(c2cccc(Cl)c2)C1=O (centres undefined) , state whether its growth is at least 70%.
YES

API: above_or_equal(metric=growth, cutoff=70%) for item "N#Cc1nc2c(S(=O)(=O)c3ccccc3)c(N)n(Cc3cccnc3)c2nc1C#N"
NO

Dear colleague, could you confirm whether "COc1ccc2nc(Cl)c(/C=C/C(=O)c3ccc(NC(=O)CSc4nnc(-c5ccc(Cl)c(Cl)c5)n4-c4ccccc4)cc3)cc2c1" has growth at or above 70%?
NO

Check the entry O=c1[nH]cnc2c1C(c1ccc(Br)cc1)c1sc3c(F)cccc3c1O2 (centres undefined) : does growth equal or exceed 70%?
NO

Exam item: decide whether the reported growth for O=C1OCC2=C1C(c1cccc(F)c1)c1cc3c(cc1N2CCO)OCO3 (centres undefined) is at least 70%.
NO

Is it the case that CC(C)=CC(=O)N[C@@H]1CC2CCC3C(CC[C@@]4(C)C3CC[C@@H]4C(C)N(C)C)[C@@]2(C)C[C@@H]1O (some centres undefined) has growth reaching or exceeding 70%?
NO

Assess whether reported growth for "N#C/C(=C\c1ccc(-c2ccc(Cl)cc2)o1)c1ccc(Cl)cc1" sits at 70% or higher.
NO

Does "CCNc1nc(-c2ccc(F)cc2)c(C#N)c(=O)n1C" have a reported growth of at least 70%?
NO
